Entry source: PubChem BioAssay (Tox21)

Experiment: qHTS assay to identify small molecule antagonists of the androgen receptor (AR) signaling pathway - cell viability counter screen (AID 743033; note: nearly all actives have a fitted effect of over 45% in size)
Conditions: AR-bla HEK293 viability, CellTiter-Glo luminescence, 16 h; series mostly up to 58.5 µM
Source text: National Center for Advancing Translational Sciences [NCATS] NIH Chemical Genomics Center [NCGC] U.S. Environmental Protection Agency [EPA] National Institutes of Environmental Health Sciences [NIEHS] National Toxicology Program [NTP] U.S. Food and Drug Administration [FDA] Androgen receptor (AR), a nuclear hormone receptor, plays a critical role in AR-dependent prostate cancer and other androgen related diseases. […]
Results filed as inconclusive are left out. The source made the active and inactive calls. Calls come from the whole dose curve; as a rule, active = well fitted cell-killing curve with a large enough effect in the repeat runs; inconclusive = weak or mixed curves; inactive = no such curve, though single readings can be large or run the other way.
metric name: activity change, negative = cytotoxicity

> print(dat)
                                    molecule                               metric.name  measurement
 1                        Cc1cccc(C(=O)O)c1O  activity change, negative = cytotoxicity     inactive
 2  CCCCCCCCCCCCOCCOCCOCCOCCOCCOCCOCCOCCOCCO  activity change, negative = cytotoxicity     inactive
 3                         COC(=O)c1ccccc1OC  activity change, negative = cytotoxicity     inactive
 4  CCC(C)(CCC(C)C)C(=O)[O][Sn]([CH3])([CH3])[O]C(=O)C(C)(CC)CCC(C)C (configuration not stated)  activity change, negative = cytotoxicity     inactive
 5  CCCCN(CCCC)CC(O)c1cc(Cl)cc2c1-c1ccc(Cl)cc1/C2=C/c1ccc(Cl)cc1 (configuration not stated)  activity change, negative = cytotoxicity     inactive
 6                  O=C(O)c1cc(O)c2ccccc2c1O  activity change, negative = cytotoxicity     inactive
 7                      CC(C)(C)C1CCC(=O)CC1  activity change, negative = cytotoxicity     inactive
 8                 CCCC(=O)OC(C)(C)Cc1ccccc1  activity change, negative = cytotoxicity     inactive
 9    COC1=C(OC)C(=O)C(CCCCCCCCCCO)=C(C)C1=O  activity change, negative = cytotoxicity     inactive
10                         CCCCCc1ccc(Cl)cc1  activity change, negative = cytotoxicity     inactive
11   O[C@@H]([C@H](O)[C@H](O)CBr)[C@H](O)CBr  activity change, negative = cytotoxicity     inactive
12   CC[N+](CC)(CC)CCOC(=O)C(C1CCCC1)C1CCCC1  activity change, negative = cytotoxicity     inactive

* * *

molecular target: Cytochrome P450 2D6 (Homo sapiens); assay: Cytochrome P450 Family 2 Subfamily D Member 6 (CYP2D6) small molecule antagonists: luciferase reporter qHTS assay (AID 1671196); settings: P450-Glo CYP2D6 enzyme assay, luciferin luminescence, 1 h; series mostly up to 115 µM; note: nearly all actives have a fitted effect of over 50% in size
Records with an inconclusive call do not appear. Calls of active or inactive are those of the source. Calls come from the whole dose curve; as a rule, active = well fitted inhibition curve with a large enough effect in the repeat runs; inconclusive = weak or mixed curves; inactive = no such curve, though single readings can be large or run the other way.
Classes used: active, inactive

> print(dat)
                                    molecule  qualitative.label
 1                      COc1cccc(OC)c1C(=O)O           inactive
 2                        CC1=CCC(=C(C)C)CC1           inactive
 3                    C/C=C/C=C/COC(=O)C(C)C           inactive
 4  OC1CCC(C2CCCCC2)CC1 (stereo unspecified)             active
 5         CC(=O)CC(=O)Nc1ccc(S(=O)(=O)O)cc1           inactive
 6                             CC/C=C\CCCCCO           inactive
 7                           CC(=O)OCC=C(C)C           inactive
 8  O=S(=O)(O)c1ccccc1/C=C/c1ccc(-c2ccc(/C=C/c3ccccc3S(=O)(=O)O)cc2)cc1           inactive
 9   CC[N+](CC)(CC)CCOC(=O)C(C1CCCC1)C1CCCC1             active
10             Nc1ccc(NCCO)c([N+](=O)[O-])c1             active
11                              CCCCOC(=O)CC           inactive
12               O=[N+]([O-])c1ccc(F)c(Cl)c1           inactive
13                           CCC(=O)OC(=O)CC             active
14     Cc1cc(C)c(/C=C2\C(=O)Nc3ccccc32)[nH]1           inactive
15             Nc1nc(N)nc(-c2cc(Cl)ccc2Cl)n1           inactive
16  CC1(C)CCC[C@]2(C)[C@H]3CCO[C@]3(C)CC[C@@H]12           inactive
17                         Cc1ccc(C(=O)O)cc1           inactive
18    Cc1nc(-c2ccc(Cl)cc2)oc1COC(C)(C)C(=O)O           inactive
19                       CCCC(=O)OCCc1ccccc1           inactive
20  CC1(C)[C@@H](O)CC[C@]2(C)[C@H]3C(=O)C=C4[C@@H]5C[C@@](C)(C(=O)O)CC[C@]5(C)CC[C@@]4(C)[C@]3(C)CC[C@@H]12           inactive
21  c1ccc(C(O[C@@H]2CCCN(CCc3ccc4c(c3)OCO4)C2)c2ccccc2)cc1             active
22  C#C[C@]1(OC(C)=O)CC[C@H]2[C@@H]3CCC4=C[C@@H](OC(C)=O)CC[C@@H]4[C@H]3CC[C@@]21C           inactive
23                           CN(C)Cc1ccccc1O           inactive
24  O=S(=O)(O)c1ccc(N=Nc2c(O)ccc3ccccc23)cc1             active
25              NC(=O)c1cccc([N+](=O)[O-])c1           inactive
26  O=C(O)[C@H](O)[C@@H](O)[C@H](O[C@@H]1O[C@H](CO)[C@H](O)[C@H](O)[C@H]1O)[C@H](O)CO           inactive
